- system: UniProtKB P0DTD1
- Type: biochemical
- Parameters: unit not given here
- test-context: Conc 200 µM; average response of dose-response curve
observation-type: Avg

In [3]: df
Out[3]:
                                    compound            system  observation_type  value_observed
 0                                Nc1cccnc1S  UniProtKB P0DTD1               Avg            99.2
 1   O=C(CCl)c1ccc2c(c1)CCN(C(=O)C(F)(F)F)C2  UniProtKB P0DTD1               Avg            92.3
 2               O=C(CCl)c1ccc(N2CCCC2=O)cc1  UniProtKB P0DTD1               Avg            83.1
 3  O=C(CCl)N1CCOC(c2ccc(F)cc2)C1 (centres unmarked)  UniProtKB P0DTD1               Avg           101.8
 4                 O=C(CCl)c1csc(N2CCCCC2)n1  UniProtKB P0DTD1               Avg           104.1
 5             CN1C(=O)CCc2cc(C(=O)CCl)ccc21  UniProtKB P0DTD1               Avg            97.7
 6                     NS(=O)(=O)c1ccc(S)nc1  UniProtKB P0DTD1               Avg           111.3
 7           CC1(C)C(=O)Nc2ccc(C(=O)CCl)cc21  UniProtKB P0DTD1               Avg           106.7
 8                            OCCc1cnc(S)nc1  UniProtKB P0DTD1               Avg           105.7
 9                Cc1cnccc1CCNC(=O)c1cccnc1S  UniProtKB P0DTD1               Avg            97.8
10             N#C/C=C/S(=O)(=O)c1ccc(Cl)cc1  UniProtKB P0DTD1               Avg           100.5

====

- system: SARS-CoV-2 3CL protease (Severe acute respiratory syndrome coronavirus 2, UniProt P0DTD1)
- Assay type: biochemical
- Design: unit not given here
- test-context: Conc 15 µM; average response of dose-response curve
Categories are defined by ranges of Avg, namely bin 0 = under 20, bin 1 = from 20 up to 30, bin 2 = 30 and over

>>> print(df.to_string())
                                    compound  label_value
 0   O=C(CCl)c1csc(N2CCCCC2)n1 [Z2469673977]        bin 2
 1  Cc1ccccc1CN1CCN(C(=O)CCl)CC1 [Z208155076]        bin 0
 2  O=C(NCCC1=CCOCC1)c1cccnc1S [Z1510476385]        bin 0
 3  O=C(CCl)N1CCOC(c2ccc(F)cc2)C1 (stereo not shown) [Z1562122812]        bin 2
 4        NS(=O)(=O)c1ccc(S)nc1 [Z235344787]        bin 1
 5  O=C(CCl)c1ccc2c(c1)CCN(C(=O)C(F)(F)F)C2 [Z1723943157]        bin 2
 6  CN1C(=O)CCc2cc(C(=O)CCl)ccc21 [Z2491497303]        bin 1
 7  O=C(CCl)c1ccc(N2CCCC2=O)cc1 [Z221603842]        bin 2
 8  Cc1cnccc1CCNC(=O)c1cccnc1S [Z1515958452]        bin 0
 9  CN1Cc2cc(C(=O)CCl)ccc2NC1=O [Z2491497315]        bin 2
10   O=C(CCl)N1CCN(Cc2cccs2)CC1 [Z166605372]        bin 0
11   O=C(NCCc1ccc(F)cc1)n1ccnc1 [Z235353843]        bin 0
12      O=C(c1ccc(S)nc1)N1CCCC1 [Z235362941]        bin 1
13                  Nc1cccnc1S [Z1741977862]        bin 2
14                  Nc1nccnc1S [Z1868316802]        bin 1
15              OCCc1cnc(S)nc1 [Z2064274637]        bin 1

====

- system: SARS-CoV-2 3CL protease (Severe acute respiratory syndrome coronavirus 2, UniProt P0DTD1)
- Type: biochemical
- Design: unit not given here
- test-context: Conc 20 µM; mean response (inhibition) of dose-response curve
observation-type: Avg

In [3]: df
Out[3]:
                         smiles_code  observation_type  value_observed
0        CSc1cc(C(=O)CCl)ccc1NC(C)=O               Avg              31
1                     N#Cc1ccnc(S)c1               Avg            67.8
2      Cc1ccccc1CN1CCCN(C(=O)CCl)CC1               Avg            33.6
3                   Cc1cnc(=S)[nH]c1               Avg            69.1
4                     N#Cc1ccc(S)nc1               Avg            30.5
5     O=C(CCl)N1CCc2[nH]c3ccccc3c2C1               Avg            74.6
6  CCN(c1ccc(C(=O)CCl)cc1)S(C)(=O)=O               Avg            34.6

====

As a worked illustration, we turn to pIC50 data collected for Cathepsin K (Homo sapiens, UniProt P43235).
pIC50: −log10 of the molar value.
observation-type: pIC50

In [3]: df
Out[3]:
                                   compound  value_observed
0  CC(C)C[C@H](NC(=O)OCc1ccccc1Cl)C(=O)N[C@@H](C[C@@H]1CCNC1=O)C(O)S(=O)(=O)O (some centres unmarked) [EB54]            7.70
1  CC(C)C[C@H](NC(=O)OCc1cccc(C(F)(F)F)c1)C(=O)N[C@@H](C[C@@H]1CCNC1=O)C(O)S(=O)(=O)O (some centres unmarked) [NK01-63]            7.40

====

- system: SARS-CoV-2 3CL protease (Severe acute respiratory syndrome coronavirus 2)
- Format: biochemical
- Parameters: unit not given here
- test-context: Conc 10 µM; average response of dose-response curve
Known Avg of a selection of molecules
observation-type: Avg

>>> print(df.to_string())
                               smiles_code                                    system  observation_type  value_observed
0                O=C(CCl)c1csc(N2CCCCC2)n1  SARS-CoV-2 3CL protease (Severe acute respiratory syndrome coronavirus 2)               Avg            51.4
1  O=C(CCl)c1ccc2c(c1)CCN(C(=O)C(F)(F)F)C2  SARS-CoV-2 3CL protease (Severe acute respiratory syndrome coronavirus 2)               Avg            42.1
2               O=C(NCCC1=CCOCC1)c1cccnc1S  SARS-CoV-2 3CL protease (Severe acute respiratory syndrome coronavirus 2)               Avg             0.1
3               O=C(CCl)N1CCN(Cc2cccs2)CC1  SARS-CoV-2 3CL protease (Severe acute respiratory syndrome coronavirus 2)               Avg             3.4
4                               Nc1nccnc1S  SARS-CoV-2 3CL protease (Severe acute respiratory syndrome coronavirus 2)               Avg            20.5
5               Cc1cnccc1CCNC(=O)c1cccnc1S  SARS-CoV-2 3CL protease (Severe acute respiratory syndrome coronavirus 2)               Avg               4

====

- system: SARS-CoV-2 3CL protease (Severe acute respiratory syndrome coronavirus 2)
- Format: biochemical
- Set-up: unit not given here
- test-context: Conc 100 µM
observation-type: Avg

                      smiles_code  value_observed
0      NC(=O)CCc1ccc(C(=O)CCl)cc1            88.3
1  Cc1cc(C(=O)CCl)c(C)n1-c1ccccn1            91.2
2       O=C(NCc1ncccc1F)c1cccnc1S            91.4
